Quick reference: TGI of the listed items.
- Tested on: HS 578T breast
- assay: NCI tumour cell line growth inhibition, 48 h
Report only the number, with the unit µM understood.

Some solved entries appear below for comparison.
compound	unit.info	TGI
Nc1nc(N)c2cc(Sc3cccc(C(F)(F)F)c3)ccc2n1	µM	10.2
CN(C(=O)Cc1cc(Cl)c(Cl)cc1NC(=O)CN)[C@H]1CCCC[C@@H]1N1CCCC1	µM	64
O=S(=O)(/N=C(\NO)Nc1ccc(Cl)cc1)c1ccccc1	µM	34.6
Cc1ccc(O)c(C2=CC(c3cccc(Br)c3)SC(N)=N2)c1 (stereo not given)	µM	45

# evaluate next
Inquiry: Give its TGI value. Item: `O=C(C[P+](c1ccccc1)(c1ccccc1)c1ccccc1)C[P+](c1ccccc1)(c1ccccc1)c1ccccc1`
Reply text: 4.5

----------
- Tested on: HCC-2998 colon
- assay: NCI tumour cell line growth inhibition, 48 h
measured.metric: TGI (nM)
Output spec: scalar in nM, unitless text.

compound	assay.system	quantitative.result
O=C(C[P+](c1ccccc1)(c1ccccc1)c1ccccc1)C[P+](c1ccccc1)(c1ccccc1)c1ccccc1	HCC-2998 colon	2170

Shifting focus to the compound that follows.
Inquiry: Query (compound): COc1cccc(C2C3=C(COC3=O)N(CCO)c3cc4c(cc32)OCO4)c1 (stereo not given) ; field requested: TGI
Reply text: 1200

----------
Parameter: TGI. Scope: all listed entries.
- Tested on: KM12 colon
- assay: NCI tumour cell line growth inhibition, 48 h

compound	TGI
Cc1cccc2c(N)c3cccc(C(=O)NCC[N+]4(Cc5ccc([N+](=O)[O-])cc5)CCOCC4)c3nc12	> 100 µM
Cc1ccc(NCCN(C)C)c2c(=O)c3ccccc3sc12	3.1 µM
COc1ccc2c3c1OC1C34CCN(C)C(C2)C4=CC(I)C1(OC)OC (stereo not given)	28.3 µM
C#CCN(C(=O)C(F)(F)F)c1ccc(C(=O)c2ccc(N(CC#C)C(=O)C(F)(F)F)cc2)cc1	> 100 µM

Consider the record given below.
Inquiry: For C[C@]12CCNC(=O)C=C1CC[C@@H]1C2CC[C@@]2(C)C1CC[C@@H]2OC(=O)COc1ccc(N(CCCl)CCCl)cc1 (stereo not given in full) , what is its reported TGI?
Reply text: 24.4 µM

----------
- Test system: SNB-19 CNS
- assay: NCI tumour cell line growth inhibition, 48 h
measured.metric: GI50

chemical.smiles	GI50
C=C1C(=O)O[C@H]2[C@H]1CC/C(COC(=O)NCCc1c[nH]c3ccc(Cl)cc13)=C\CC[C@@]1(C)O[C@@H]21	3.98 µM
COc1ccccc1NS(=O)(=O)c1ccc2oc(SC(C)C)nc2c1	37.7 µM
COc1cccc(/C(C)=N/NC(=O)CSc2nc3ccccc3c(=O)n2CCc2ccc(S(N)(=O)=O)cc2)c1	2.89 µM

Inquiry: Which value of GI50 has been reported for `Cc1ccc(NCCN(C)C)c2c(=O)c3ccccc3sc12` in the records?
Reply text: 2.24 µM

----------
- Test system: RXF-631 renal
- assay: NCI tumour cell line growth inhibition, 48 h
# maps each entry to its TGI

Check out these entries, answers already filled in.
compound	TGI
N#Cc1ccc2cc3c(cc2c1)OCO3	> 100 µM
COC1C2c3cc4c(cc3CC(C#N)(c3ccccc32)N1C(=O)c1ccccc1)OCO4 (configuration not stated)	> 100 µM
C[C@]12CCNC(=O)C=C1CC[C@@H]1C2CC[C@@]2(C)C1CC[C@@H]2OC(=O)COc1ccc(N(CCCl)CCCl)cc1 (some centres not stated)	> 88.8 µM

Inquiry: Any idea what TGI was measured for CC(=O)OC1CC[C@@]2(C)C(CC[C@]3(C)C2CC=C2[C@@H]4C(C)[C@H](C)CCC4(C)CCC23C)[C@@]1(C)C(=O)O (some centres not stated) ?
Reply text: 68.6 µM

Inquiry: What does the record list as TGI for `COC(=O)/C=c1\s/c(=C\C(=O)OC)c2ccccc12` ?
Reply text: > 100 µM

Inquiry: I am curious: what TGI value has been reported for `CC(=O)N(O)Cc1ccccc1` ?
Reply text: > 100 µM

Inquiry: Reported TGI, compound `COc1cc2c(cc1C1=NC(C)(C)CO1)OCO2` : ____
Reply text: > 100 µM
